# Tested on: T1, human CD4 on cells (SKW3 cells; human PBMCs) (human, UniProt P01730 26-458)
# T1 construct: whole, on cells; The SKW3 CD4 knockout cells served as the negative cell line; also called hCD4
# Protocol details: FACS confirmation, supernatant on human PBMCs, anti-mFc 647, CD4+ gate

- Binder: "75110_01H18A (antibody, V domains shown, Tested as non-clonal hybridoma supernatant from AlivaMab Mouse Kappa mice, detected with anti-mouse Fc and anti-human Kappa) VH: QVQLQQWGAGLLKPSETLSLTCAVYGGSFSGYYWSWIRQSPGKGLEWIGEINQSGSTNYNPSLKSRVTISVDTSKNQFSLKLSSVTAADTAVYYCARVINWFDSWGQGTLVTVSS VL: DIQMTQSPSSVSASVGDRVTITCRASQGISSWLAWYQQKPGKAPKLLIYAASSFQSGVPSRFSGSGSGTDFTLTISSLQTEDFATYYCQQANSFPYTFGQGTRLEIK"
  PBMCs CD4+ gate RL1 Binding: 263000
- Binder: "75110_10K21A (antibody, V domains shown, Tested as non-clonal hybridoma supernatant from AlivaMab Mouse Kappa mice, detected with anti-mouse Fc and anti-human Kappa) VH: EVQLVESGGGLVQPGGSLRLSCAASGFTFSSYWMTWVRQAPGKGLEWVANIKQDGSEKYYVDSVKGRFTISRDNAKNSLYLQMNSLRAEDTAVYYCVRDRYDALDIWGQGTMVTVSS VL: AIQMTQSPSSLSASVGDRVTITCRASQGIRNDLNWYQQKPGKAPKLLIYAASSLQSGVPSRFSGSGSGTDFTLTISSLQAEDFATYYCLKDYNYPYTFGQGTKLEIK"
  PBMCs CD4+ gate RL1 Binding: 224000
- Binder: "75110_10N21A (antibody, V domains shown, Tested as non-clonal hybridoma supernatant from AlivaMab Mouse Kappa mice, detected with anti-mouse Fc and anti-human Kappa) VH: EVQLVESGGGLVQPGGSLRLSCAASGFTFSSYDMHWVRQVTGKGLEWVSTIGTAGDTYYPGSVKGRFTISRENAKNSLYLQMNSLRAGDTAVYYCARGGYYYYGMDVWGQGTTVTVSS VL: EIVLTQSPGTLSLSPGERATLSCRASQSFISSYLAWYQQKPGQAPRLLIYGASSRATGIPDRFSGSGSGTDFTLTISRLDPEDFAVYYCQQSGNSPFTFGPGTKVDVK"
  PBMCs CD4+ gate RL1 Binding: 179000
